Hello, the source for this data is paper PMC9820345, in case you need it.

# run-description: Proton dissociation constants (pKa) of the ligand by pH-potentiometric, UV-vis and 1H NMR titrations
# Format: physicochemical
# assay-setup: 0.20 M KNO3, 1H NMR; I = 0.20 M KNO3; cligand 1000 μM; 25.0 °C; read-out: pKa (NProH+)
# Protocol: Characterization of the protonation/deprotonation equilibrium processes of a bioactive molecule is important to reveal its actual chemical form and charge at a given pH. […] The pKa values of the protonated HQNO2-L-Pro were determined by pH-potentiometric, UV-vis (Figure 1a), and ^1H NMR spectroscopic titrations (Table 1). […]
measure: pKa

// recorded pKa for O=C(O)[C@@H]1CCCN1Cc1cc([N+](=O)[O-])c2cccnc2c1O : > 10.5

* * *

# Test system: MES-SA/Dx5
# run-description: In vitro cytotoxicity, MES-SA/Dx5 cells (fluorescent protein readout)
# Format: cell-based, human
# assay-setup: Homo sapiens, MES-SA/Dx5; 144 h exposure
measure: IC50 (µM)
Write down the numeric answer in µM and omit the unit.

compound: COc1cccc2c1C(=O)c1c(O)c3c(c(O)c1C2=O)C[C@@](O)(C(=O)CO)C[C@@H]3O[C@H]1C[C@H](N)[C@H](O)[C@H](C)O1 [doxorubicin, reference compound]
target-of-assay: MES-SA/Dx5
units-label: µM
result-number: 4

Next compound, IC50 to be filled in.
// recorded IC50 for O=C(O)[C@@H]1CCCN1Cc1cc([N+](=O)[O-])c2cccnc2c1O : 97

* * *

# run-description: Aqueous solubility at physiological pH (S7.4)
# Format: physicochemical
# assay-setup: water, pH 7.4, aqueous buffer
measure: solubility

// recorded solubility for O=C(O)[C@@H]1CCCN1Cc1cc([N+](=O)[O-])c2cccnc2c1O [HQNO2-L-Pro] : > 10 mM

* * *

# target-of-assay: OATP1B1 (Homo sapiens)
# Construct: expressed in transfected cells; host or cells: A431 epidermoid carcinoma cells
# Sequence (Q9Y6L6 1-691): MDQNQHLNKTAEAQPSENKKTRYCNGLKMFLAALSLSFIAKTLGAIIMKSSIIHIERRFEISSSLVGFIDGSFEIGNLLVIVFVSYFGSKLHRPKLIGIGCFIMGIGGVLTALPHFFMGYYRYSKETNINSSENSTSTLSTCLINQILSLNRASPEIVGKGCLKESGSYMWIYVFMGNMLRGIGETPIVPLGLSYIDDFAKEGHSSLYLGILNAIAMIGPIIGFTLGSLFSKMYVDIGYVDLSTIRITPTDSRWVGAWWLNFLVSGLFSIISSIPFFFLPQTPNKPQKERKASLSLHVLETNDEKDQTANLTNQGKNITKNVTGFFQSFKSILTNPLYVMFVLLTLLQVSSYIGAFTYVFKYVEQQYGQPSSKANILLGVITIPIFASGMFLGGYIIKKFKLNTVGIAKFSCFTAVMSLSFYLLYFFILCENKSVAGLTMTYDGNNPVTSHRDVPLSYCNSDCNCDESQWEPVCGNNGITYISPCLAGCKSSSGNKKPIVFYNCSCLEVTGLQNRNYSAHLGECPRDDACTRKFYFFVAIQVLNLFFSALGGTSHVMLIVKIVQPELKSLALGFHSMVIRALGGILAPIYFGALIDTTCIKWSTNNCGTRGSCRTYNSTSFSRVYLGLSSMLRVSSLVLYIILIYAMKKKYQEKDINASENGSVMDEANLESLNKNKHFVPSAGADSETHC
# run-description: OATP uptake assay, OATP1B1
# Format: cell-based
# assay-setup: human, A431 cells overexpressing OATP1B1, pH 7.4, probe disulfopyrene, 10 μM; 100 μM; absence of compound = 100%; n = 3, ± SD; read-out: transport activity % OATP1B1
measure: activity at 10 min, 100 µM (%)
Write down the numeric answer in % and omit the unit.

// recorded activity at 10 min, 100 µM for O=C(O)[C@@H]1CCCN1Cc1cc([N+](=O)[O-])c2cccnc2c1O : 88.1

* * *

# target-of-assay: OATP2B1 (Homo sapiens, UniProt O94956)
# Construct: expressed in transfected cells; host or cells: A431 epidermoid carcinoma cells
# run-description: OATP uptake assay, OATP2B1
# Type: cell-based
# assay-setup: human, A431 cells overexpressing OATP2B1, pH 5.5, probe pyranine, 20 μM; 10 μM; absence of compound = 100%; n = 3, ± SD; read-out: transport activity % OATP2B1
measure: activity at 15 min, 10 µM (%)
Write down the numeric answer in % and omit the unit.

// recorded activity at 15 min, 10 µM for O=C(O)[C@@H]1CCCN1Cc1cc([N+](=O)[O-])c2cccnc2c1O : 98.2

* * *

# run-description: Proton dissociation constants (pKa) of the ligand by pH-potentiometric, UV-vis and 1H NMR titrations
# Format: physicochemical
# assay-setup: water, 0.20 M KNO3, pH-potentiometry; I = 0.20 M KNO3; cligand 1700 μM; 25.0 °C; read-out: pKa (OH)
measure: pKa
Would you mind answering with just the numeric figure?

// recorded pKa for O=C(O)[C@@H]1CCCN1Cc1cc([N+](=O)[O-])c2cccnc2c1O : 5.57

* * *

# run-description: Proton dissociation constants (pKa) of the ligand by pH-potentiometric, UV-vis and 1H NMR titrations
# Type: physicochemical
# assay-setup: 0.10 M KCl, UV-vis; I = 0.10 M KCl; cligand 40 μM; 25.0 °C; read-out: pKa (NProH+)
measure: pKa
Would you mind answering with just the numeric figure?

// recorded pKa for O=C(O)[C@@H]1CCCN1Cc1cc([N+](=O)[O-])c2cccnc2c1O [HQNO2-L-Pro] : 10.8

* * *

# target-of-assay: OATP2B1 (Homo sapiens)
# Construct: expressed in transfected cells; host or cells: A431 epidermoid carcinoma cells
# run-description: OATP uptake assay, OATP2B1
# Format: cell-based
# assay-setup: human, A431 cells overexpressing OATP2B1, pH 5.5, probe pyranine, 20 μM; 100 μM; absence of compound = 100%; n = 3, ± SD; read-out: transport activity % OATP2B1
measure: activity at 15 min, 100 µM (%)
Write down the numeric answer in % and omit the unit.

// recorded activity at 15 min, 100 µM for O=C(O)[C@@H]1CCCN1Cc1cc([N+](=O)[O-])c2cccnc2c1O : 83.3

* * *

# Tested on: MES-SA
# run-description: In vitro cytotoxicity, MES-SA cells (fluorescent protein readout)
# Assay type: cell-based, human
# assay-setup: Homo sapiens, MES-SA; 144 h exposure
# Description: Cell lines: all cell culture reagents were obtained from Sigma-Aldrich; plasticware was purchased from Sarstedt (Nümbrecht, Germany); Human colon Colo205 (chemo-sensitive, ATCC-CCL-222) and Colo320 (Pgp/MDR1-expressing, doxorubicin-resistant, ATCC-CCL-220.1) adenocarcinoma cell lines were purchased from LGC Promochem, Teddington, UK; MES-SA and MES-SA/Dx5 uterine sarcoma cell lines were obtained from ATCC, where they were characterized by DNA fingerprinting. […]
Below, each of the compounds is paired with its reported pIC50 value.
The read-out pIC50 is expressed as -log10 of concentration in moles per litre.

compound: O=C(O)[C@@H]1CCCN1Cc1cc([N+](=O)[O-])c2cccnc2c1O
target-of-assay: MES-SA
measure: pIC50
result-number: 3.65

Next compound, pIC50 to be filled in.
Param item: COc1cccc2c1C(=O)c1c(O)c3c(c(O)c1C2=O)C[C@@](O)(C(=O)CO)C[C@@H]3O[C@H]1C[C@H](N)[C@H](O)[C@H](C)O1 [doxorubicin, reference compound] ; param system: MES-SA; output pIC50: 7.52

* * *

# target-of-assay: OATP2B1 (Homo sapiens, UniProt O94956)
# Construct: expressed in transfected cells; host or cells: A431 epidermoid carcinoma cells
# Sequence (O94956 1-709): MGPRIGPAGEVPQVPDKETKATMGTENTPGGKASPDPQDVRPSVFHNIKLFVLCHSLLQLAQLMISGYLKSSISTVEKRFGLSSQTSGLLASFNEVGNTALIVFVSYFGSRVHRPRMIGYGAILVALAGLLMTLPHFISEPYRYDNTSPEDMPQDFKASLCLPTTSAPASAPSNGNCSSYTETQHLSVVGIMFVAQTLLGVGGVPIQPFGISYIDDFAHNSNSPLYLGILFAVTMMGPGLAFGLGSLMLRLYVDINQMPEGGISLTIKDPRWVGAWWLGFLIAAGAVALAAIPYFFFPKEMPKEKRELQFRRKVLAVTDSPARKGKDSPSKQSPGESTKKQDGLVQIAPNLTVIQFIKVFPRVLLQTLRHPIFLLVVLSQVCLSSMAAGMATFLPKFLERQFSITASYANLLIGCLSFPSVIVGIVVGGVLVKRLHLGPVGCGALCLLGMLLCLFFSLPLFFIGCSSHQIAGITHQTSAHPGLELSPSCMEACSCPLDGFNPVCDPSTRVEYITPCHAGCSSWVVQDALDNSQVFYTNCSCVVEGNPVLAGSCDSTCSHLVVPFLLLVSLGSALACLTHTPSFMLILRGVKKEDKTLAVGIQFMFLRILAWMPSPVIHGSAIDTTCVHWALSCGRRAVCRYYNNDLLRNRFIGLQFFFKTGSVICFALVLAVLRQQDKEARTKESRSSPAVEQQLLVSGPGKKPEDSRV
# run-description: OATP uptake assay, OATP2B1
# Type: cell-based
# assay-setup: human, probe pyranine, 20 μM; at 100 μM; A431 cells overexpressing OATP2B1; pH 5.5; read-out: inhibition of OATP2B1 function
measure: inhibition at 15 min, 100 µM

// recorded inhibition at 15 min, 100 µM for O=C(O)[C@@H]1CCCN1Cc1cc([N+](=O)[O-])c2cccnc2c1O [HQNO2-L-Pro] : < 20%
